Test system: RARa:RXR (NR concentration 270 nM, RXRa partner concentration 90 nM)
method_notes: PBM binding z-score (relative to random genomic background probes); higher = stronger binding; sequences stand for … in GC…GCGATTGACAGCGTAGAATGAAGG
Please map values of PBM binding z-score to classes as shown: band 1 (below 0.6), band 2 (0.6 to below 3), band 3 (3 or more)

Consider the worked cases shown below.
Category of "ACTATTAGTTGAGACGAGTGCAACCGATAGGTTG" , please.
band 1

Into which category would you place "TACACAGGGTCAAAGGCCAGAGTACGAATGTCGA" ?
band 3

Into which bin does this sequence go? "CCTCGGAGGAGAGAAGGTCAGAGCTGTCCGCTTT"
band 2

The entry to classify is "CATACAGGGTCAGCTAGGCCAGAGCAGGGACGGC" ; which class holds it?
band 2

Into which category would you place "TCTAGTTGGTCACGTAGGTCACACACGACGGGTA" ?
band 2

Could you tell me which band "TCTTGTAGATCAAACGTTAAGAAAGCCGAAGCCT" belongs to?
band 1

Bin this entry: "CCTTACGGTTCACGAGGTTATAGCACGACGAGCG"
band 3

Just checking, what class would you give "AGAACGAGGGCACGTTGAGTTGATAGCAGAGTAG" here?
band 2

More entries:
Hey, which category is "CTCGAAAGGTCTTGCTCAGGTGAGTATACCAAAC" in, do you know?
band 2

// bin(item) where item = "CCTACTGGGCCAAAGGTCATTGAGTCCAATGCTC"
band 3

Which PBM binding z-score band matches "TCTATTAGTTGAGTAGGGCAACCGAAACAGCGGA" ?
band 1

Which PBM binding z-score band matches "CAAACTAGGTCAACGGTCAAAGTCGAGCCAACCA" ?
band 3

Which category fits this record: "CCTTACGGGTCACTCCAGGTAATAGCATCGGAGT"
band 3

Returns: class label. Input: "CGAACTAGGTCATCCAGGACAGTGACTACATTGA"
band 2

// bin(item) where item = "GCGACTGGGGCAAAGCAGGATACCATAAGGTTGG"
band 1

Bin this entry: "ACAGACGGGTGAGTGAAGGTAACTCAGCTGGACG"
band 1

Category of "TCTTGTAGATCCATAGAGGTTAAGAAAGTGCGCT" :
band 2

Class (by measured PBM binding z-score) for "CAAACTAGGTCACAGAGGTCAAAGACCGTGCGTA"
band 3

Which class is correct for the following sequence? "TGAATGAGGTTATAAGATCAGGGGACGTTGCAAA"
band 2

Please classify: "TCTAGTTGGACACGGAGGTCACACACGACGGGTA"
band 3

Please report the category associated with "CCTTACGGCTCACTGACAGGTTATAGCATTTGGA" , nothing else.
band 2

Which band does "ACCATTAGTTGACTTAGGGCAACCGATACGACGC" fall in?
band 2

Into which bin does this sequence go? "TGTCACAGTTCAAAGGTAACGTAAGTATCCACAC"
band 3
